Test system: 695427-040-R-J1-PDC complex spheroid viability;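 also: viability read after seven days of drug exposure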
Assay: Anticancer human tumor 695427-040-R-J1-PDC patient-derived colon adenocarcinoma cell line growth inhibition [RAS]
Conditions: curve of first compound; second compound 0.03 µM
METRIC NAME: IC50

Example cases with answers are listed next.
MOLECULE	METRIC NAME	ASSAY VALUE
CC(C)n1nc(-c2ccc3oc(N)nc3c2)c2c(N)ncnc21 + CCn1c(-c2cc(N3CCN(C)CC3)cnc2C(C)OC)c2c3cc(ccc31)-c1csc(n1)CC(NC(=O)C1CC1C)C(=O)N1CCCC(N1)C(=O)OCC(C)(C)C2	IC50	4.03 nM
Cc1nc(N2CCC3(CC2)COC(C)C3N)c(CO)nc1Sc1ccnc(N)c1Cl (stereo not drawn) + CCn1c(-c2cc(N3CCN(C)CC3)cnc2C(C)OC)c2c3cc(ccc31)-c1csc(n1)CC(NC(=O)C1CC1C)C(=O)N1CCCC(N1)C(=O)OCC(C)(C)C2	IC50	117 nM
CC(Nc1ccc2c(c1)OCCn1cc(N3C(=O)OCC3C(F)F)nc1-2)C(N)=O (stereo not drawn) + CCn1c(-c2cc(N3CCN(C)CC3)cnc2C(C)OC)c2c3cc(ccc31)-c1csc(n1)CC(NC(=O)C1CC1C)C(=O)N1CCCC(N1)C(=O)OCC(C)(C)C2	IC50	< 31.6 nM
O=C(c1ccc(F)c(F)c1Nc1ccc(I)cc1F)N1CC(O)([C@@H]2CCCCN2)C1 + CCn1c(-c2cc(N3CCN(C)CC3)cnc2C(C)OC)c2c3cc(ccc31)-c1csc(n1)CC(NC(=O)C1CC1C)C(=O)N1CCCC(N1)C(=O)OCC(C)(C)C2	IC50	4.98 nM
Nc1ccn(C2OC(CO)C(O)C2(F)F)c(=O)n1 (stereo not drawn) + CCn1c(-c2cccnc2C(C)OC)c2c3cc(ccc31)N1CCOC(CC(NC(=O)C(C(C)C)N(C)C(=O)C3(F)CCN(C(=O)C#CC(C)(C)N(C)C)CC3)C(=O)N3CCCC(N3)C(=O)OCC(C)(C)C2)C1	IC50	> 1000 nM

Input line: Indicate its recorded IC50; the molecule in question is CC(Nc1ccc2c(c1)OCCn1cc(N3C(=O)OCC3C(F)F)nc1-2)C(N)=O (stereo not drawn) + CCn1c(-c2cccnc2C(C)OC)c2c3cc(ccc31)N1CCOC(CC(NC(=O)C(C(C)C)N(C)C(=O)C3(F)CCN(C(=O)C#CC(C)(C)N(C)C)CC3)C(=O)N3CCCC(N3)C(=O)OCC(C)(C)C2)C1
Output line: > 10000 nM

Input line: Indicate its recorded IC50; the molecule in question is C=CC(=O)N1CCN(c2nc(OCC3CCCN3C)nc3c(F)c(-c4nc(N)cc(C)c4C(F)(F)F)c(Cl)cc23)C(C)C1 (stereo not drawn) + CCn1c(-c2cccnc2C(C)OC)c2c3cc(ccc31)N1CCOC(CC(NC(=O)C(C(C)C)N(C)C(=O)C3(F)CCN(C(=O)C#CC(C)(C)N(C)C)CC3)C(=O)N3CCCC(N3)C(=O)OCC(C)(C)C2)C1
Output line: > 1000 nM

Input line: Indicate its recorded IC50; the molecule in question is NC1c2ccccc2OC12CCN(c1cnc3c(N4CCCc5ncccc54)n[nH]c3n1)CC2 (stereo not drawn) + CCn1c(-c2cc(N3CCN(C)CC3)cnc2C(C)OC)c2c3cc(ccc31)-c1csc(n1)CC(NC(=O)C1CC1C)C(=O)N1CCCC(N1)C(=O)OCC(C)(C)C2
Output line: < 31.6 nM

Hello, the source for this data is PubChem BioAssay AID2060888, in case you need it.
